Recorded self-cleavage kobs at 2500 uM GlcN6P values for a group of variants are listed next.
B1: glmS ribozyme (parent)
chain: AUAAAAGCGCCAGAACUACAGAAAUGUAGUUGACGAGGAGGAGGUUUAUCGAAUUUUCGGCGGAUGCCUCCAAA

# Variants of: B1
# assay comment: self-cleavage kobs at 2500 uM GlcN6P; higher = faster cleavage; RNA array
# measurement conditions: with glucosamine-6-phosphate
Fewer inactive variants are shown than the library holds.

Past entries and their recorded results:
G35A G40U G51A U69G ... < 1e-05 s⁻¹
G41A A53C ... 0.000101 s⁻¹
A6C C68U ... 3.96e-05 s⁻¹
A6U C10G A39U C71U ... < 1e-05 s⁻¹
G13A U30G ... 0.000144 s⁻¹

**Q:** What self-cleavage kobs at 2500 uM GlcN6P value was documented for this variant, A14C C16A G43U C68U ?
**A:** < 1e-05 s⁻¹

**Q:** Name the recorded self-cleavage kobs at 2500 uM GlcN6P for G7C C10U G13C G66U .
**A:** < 1e-05 s⁻¹

**Q:** Consider the variant G40C G41U and give its measured self-cleavage kobs at 2500 uM GlcN6P.
**A:** 8.04e-05 s⁻¹

**Q:** Any idea what its self-cleavage kobs at 2500 uM GlcN6P is? The variant is C11G C34A
**A:** < 1e-05 s⁻¹

**Q:** self-cleavage kobs at 2500 uM GlcN6P for G13A A36G ?
**A:** < 1e-05 s⁻¹

**Q:** GET /values?readout=self-cleavage kobs at 2500 uM GlcN6P&item= G38U U46A
**A:** < 1e-05 s⁻¹

**Q:** Tell me the measured self-cleavage kobs at 2500 uM GlcN6P of C11G U30C G40C , please.
**A:** < 1e-05 s⁻¹
